Readings of koff for the listed binders
Target Or Test System: T1, human soluble urokinase plasminogen activator receptor (hsuPAR) (human, UniProt Q03405 23-303, limits assumed)
T1 construct: also called human suPAR; rhuPAR-His
T1 sequence (Q03405 23-303 limits assumed): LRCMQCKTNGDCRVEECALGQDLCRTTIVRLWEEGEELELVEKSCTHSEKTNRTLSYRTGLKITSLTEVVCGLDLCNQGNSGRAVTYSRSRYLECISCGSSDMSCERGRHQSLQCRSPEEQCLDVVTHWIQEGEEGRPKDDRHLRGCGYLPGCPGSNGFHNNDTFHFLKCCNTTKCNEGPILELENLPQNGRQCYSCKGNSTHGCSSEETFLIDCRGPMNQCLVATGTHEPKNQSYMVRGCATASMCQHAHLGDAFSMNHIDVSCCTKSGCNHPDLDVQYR
Measurement Protocol: off-rate screen of scFv clones (kdis), Octet BLI
Endpoint Name: koff (s⁻¹)

suPAR_DB04_G02 (scFv, V domains shown, scFv clone from phage display) VH: QVQLVQSGAEVKKPGASVKVSCKASGYTFTNYYMHWVRQAPGQGLEWMGWIDHENGNTIYDQKFQGRVTMTRDTSTSTVYMELSSLRSEDTAVYYCARGYDVDWFVYWGQGTLVTVSS VL: DIQMTQSPSSLSASVGDRVTITCSARSSVSYMYWYQQKPGKAPKLLIYRTSSLASGVPSRFSGSGSGTDFTLTISSLQPEDFATYYCQQYHSYPPTFGGGTKVEIK : 0.00185
suPAR_DB04_C12 (scFv, V domains shown, scFv clone from phage display) VH: QVQLVQSGAEVKKPGASVKVSCKASGHTITSYYMHWVRQAPGQGLEWMGWIDHENGSTIYAQKFQGRVTMTRDTSTSTVYMELSSLRSEDTAVYYCARGYDVDWFVYWGQGTLVTVSS VL: DIQMTQSPSSLSASVGDRVTITCRASSSVSYMYWYQQKPGKAPKLLIYRTSNLASGVPSRFSGSGSGTDFTLTISSLQPEDFATYYCQQYHSYPPTFGGGTKVEIK : 0.000626
suPAR_DB04_C03 (scFv, V domains shown, scFv clone from phage display) VH: QVQLVQSGAEVKKPGASVKVSCKASGYTFTSYYMHWVRQAPGQGLEWMGWIDPENGSTIYDQKFQGRVTMTRDTSTSTVYMELSSLRSEDTAVYYCASGYDVDWFVYWGQGTLVTVSS VL: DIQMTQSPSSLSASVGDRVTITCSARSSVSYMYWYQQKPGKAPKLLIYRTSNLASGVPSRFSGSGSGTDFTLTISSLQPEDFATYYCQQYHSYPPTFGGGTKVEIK : 0.00368
